The measurements presented in this section are drawn from ChEMBL document CHEMBL1201862.

system: EKVX; assay: NCI tumour cell line growth inhibition, 48 h
Active and inactive are the calls of the source. No stated cut-off is given here; in the data, active = GI50 up to about 1.1 µM and inactive = higher.
PARAMETER MEASURED: GI50

Below, 4 molecules whose answers are already recorded.
Inquiry: Endpoint output: GI50 of CC1CN1c1c(C(=O)/C=C/c2ccc(Cl)cc2)c(-c2ccccc2)nn(C)c1=O (stereo not given) . Value?
Reply text: 3.63 µM (inactive)

Inquiry: Endpoint output: GI50 of "COc1ccc2c(c1)CCc1c-2n(CCN(C)C)c2ccc(OC)cc12" . Value?
Reply text: 31.2 µM (inactive)

Inquiry: Endpoint output: GI50 of O=C(Cc1ccccc1)N/N=C(\C1=Nc2ccc([N+](=O)[O-])cc2NC1O)C(O)c1ccc([N+](=O)[O-])cc1 (stereo not given) . Value?
Reply text: > 100 µM (inactive)

Inquiry: Endpoint output: GI50 of "CSCC[C@@H]1C(=O)N(C)[C@H](C(C)(C)C)N1C(=O)c1ccccc1" . Value?
Reply text: > 100 µM (inactive)

Here is another molecule to look at.
Inquiry: Endpoint output: GI50 of C[N+]1(Cc2ccc(Cl)c(Cl)c2)CCCC1C1CCCN(Cc2ccc(Cl)c(Cl)c2)C1 (stereo not given) . Value?
Reply text: 46 µM (inactive)

====

test system: A549; experiment: NCI tumour cell line growth inhibition, 48 h
Active and inactive are the calls of the source. Cut-off read from the data, not from the text of the source: active = GI50 up to about 1.1 µM and inactive = higher.
PARAMETER MEASURED: GI50

Below, 3 compounds whose answers are already recorded.
Inquiry: Endpoint output: GI50 of "O=[N+]([O-])c1ccccc1S(=O)(=O)c1ccccc1[N+](=O)[O-]" . Value?
Reply text: > 56.2 µM (inactive)

Inquiry: Endpoint output: GI50 of "CC(=O)On1c(-c2ccccc2-c2nc3ccccc3n2OC(C)=O)nc2ccccc21" . Value?
Reply text: 41.3 µM (inactive)

Inquiry: Endpoint output: GI50 of C=CC/N=C(\S)Nc1sc2c(c1C(=O)OCC)CC(C)CC2 (stereo unspecified) . Value?
Reply text: 24.8 µM (inactive)

More entries:
Inquiry: Endpoint output: GI50 of C/C=C/OC1C(C2COC(C)(C)O2)OC2OC(C)(C)OC21 (stereo unspecified) . Value?
Reply text: > 100 µM (inactive)

====

GI50, HCT-15: measured values

Inquiry: GI50 of "Cn1nnc2c(C(N)=S)ncn2c1=O" on HCT-15?
Reply text: > 100 µM

Inquiry: GI50 of COc1cccc2c1C(=O)c1c(O)c3c(c(O)c1C2=O)C[C@@](O)(C(C)=O)CC3S(=O)(=O)O (stereo not given in full) on HCT-15?
Reply text: > 100 µM

Inquiry: GI50 of CC(C)(C)OC(=O)N1CCCC1C(=O)NC(c1ccccc1)c1ccccc1 (stereo not given) on HCT-15?
Reply text: > 100 µM

Inquiry: GI50 of "O=C(c1ccc(Cl)cc1Cl)N(C(=O)N1CCC(c2ccccc2)CC1)c1ccccc1" on HCT-15?
Reply text: > 100 µM

Inquiry: GI50 of "COC(=O)NC1=NNC(=O)c2ccccc2N1" on HCT-15?
Reply text: > 100 µM

====

tested on: U-251; test: NCI tumour cell line growth inhibition, 48 h
Calls of active or inactive are those of the source. Cut-off read from the data, not from the text of the source: active = GI50 up to about 1.1 µM and inactive = higher.
Parameter call: string, one of active, inactive

Inquiry: What classification did CCC1=C(C(C)=O)[C@@H]2CCCCC[C@@H](C(=O)OC)C2C1=O (stereo not given in full) end up with in this test?
Reply text: inactive

Inquiry: What classification did COc1ccc(C2=NN(C(=O)c3cccnc3)C(O)(c3cc(F)c(Cl)cc3Cl)C2)cc1OC (stereo not given) end up with in this test?
Reply text: inactive

More entries:
Inquiry: What classification did "OCCN(CCO)c1ncnc2[nH]cnc12" end up with in this test?
Reply text: inactive

Inquiry: What classification did "CC1=C(C(=O)Nc2cccc(Cl)c2)C(c2ccccc2F)C(C(=O)Nc2cccc(Cl)c2)=C(C)N1" end up with in this test?
Reply text: inactive

Inquiry: What classification did "O=C1Nc2ccccc2/C1=N/Nc1ccc([N+](=O)[O-])cc1" end up with in this test?
Reply text: inactive

====

test system: HL-60; assay: NCI tumour cell line growth inhibition, 48 h
Active and inactive are the calls of the source. Rule as the data show it: active = GI50 up to about 1.1 µM and inactive = higher. Bridge positions count the residues as written; N and C are the ends. Square brackets hold non-standard residues; d marks the D form. Peptide text beside a SMILES is read from it. I, II: the chains in the order shown. * marks the point of attachment. Quinoxaline2carbonyl = O=C(c1cnc2ccccc2n1)*; NMeV = CN[CH](C(=O)O)C(C)C; NMeC = CN[CH](CS)C(=O)O
PARAMETER MEASURED: GI50

Below, 2 molecules whose answers are already recorded.
Inquiry: Endpoint output: GI50 of "Cc1ccc(C)c2c1n1c(=O)n(C)c(=O)n21" . Value?
Reply text: > 100 µM (inactive)

Inquiry: Endpoint output: GI50 of CC1NC(=O)C(NC(=O)c2cnc3ccccc3n2)COC(=O)C(C(C)C)N(C)C(=O)C2CSSCC(C(=O)N(C)C(C(C)C)C(=O)OCC(NC(=O)c3cnc4ccccc4n3)C(=O)NC(C)C(=O)N2C)N(C)C1=O (stereo not drawn) (I: Quinoxaline2carbonyl-SA[NMeC][NMeV] / II: Quinoxaline2carbonyl-SA[NMeC][NMeV]; ester I:1-II:C, I:C-II:1; disulfide I:3-II:3; configuration not given here) . Value?
Reply text: < 0.01 µM (active)

More entries:
Inquiry: Endpoint output: GI50 of "COc1ccc(Nc2[nH]c(C(C)=O)c(N)c2C(=S)Nc2ccccc2)cc1" . Value?
Reply text: 45.1 µM (inactive)

====

tested on: K562; assay: NCI tumour cell line growth inhibition, 48 h
Calls of active or inactive are those of the source. Rule as the data show it: active = GI50 up to about 1.1 µM and inactive = higher.
Measured GI50 of individual entries

Below, 2 compounds whose answers are already recorded.
Inquiry: Endpoint output: GI50 of "Cc1c(C(=O)/C=C/c2ccco2)[n+]([O-])c2ccccc2[n+]1[O-]" . Value?
Reply text: 56.4 µM (inactive)

Inquiry: Endpoint output: GI50 of "Cn1nnc2c(C(N)=S)ncn2c1=O" . Value?
Reply text: > 100 µM (inactive)

More entries:
Inquiry: Endpoint output: GI50 of Cc1cn(C2CC(N)C(CN)O2)c(=O)[nH]c1=O (stereo not drawn) . Value?
Reply text: > 100 µM (inactive)

====

tested on: COLO 205; test: NCI tumour cell line growth inhibition, 48 h
Calls of active or inactive are those of the source. Rule as the data show it: active = GI50 up to about 1.1 µM and inactive = higher.
PARAMETER MEASURED: GI50

Below, 3 molecules whose answers are already recorded.
Inquiry: Endpoint output: GI50 of "Cc1ccc(/N=N/c2c(C)nn(-c3ccccc3)c2C)c(Br)c1" . Value?
Reply text: > 100 µM (inactive)

Inquiry: Endpoint output: GI50 of COC(=O)C(=O)C(C#N)c1nc2ccccc2s1 (stereo not drawn) . Value?
Reply text: > 100 µM (inactive)

Inquiry: Endpoint output: GI50 of CC(C)(C)OC(=O)N1CCCC1C(=O)NC(c1ccccc1)c1ccccc1 (stereo not drawn) . Value?
Reply text: > 100 µM (inactive)

More entries:
Inquiry: Endpoint output: GI50 of CC1C(c2ccc(N(C)C)cc2)c2cc3c(cc2OC1N1CCCC1)OCO3 (stereo not drawn) . Value?
Reply text: 45 µM (inactive)

Inquiry: Endpoint output: GI50 of "COc1ccc2nc(-c3ccc(OCc4ccccc4)cc3)ccc2c1" . Value?
Reply text: > 100 µM (inactive)

Inquiry: Endpoint output: GI50 of BrC1(Br)C2/C=C\CCCCC21 (stereo not drawn) . Value?
Reply text: > 100 µM (inactive)

Inquiry: Endpoint output: GI50 of COC(=O)C1(Cc2ccccc2)Cc2ccc3c(c2C1=O)CCC3 (stereo not drawn) . Value?
Reply text: 27.8 µM (inactive)

Inquiry: Endpoint output: GI50 of CCOC(=O)/C=C/C1OC(C)(C)OC1/C=C/C(=O)OCC (stereo not drawn) . Value?
Reply text: 30.6 µM (inactive)

====

Measured GI50 of individual entries
system: HCT-116; experiment: NCI tumour cell line growth inhibition, 48 h
Calls of active or inactive are those of the source. No stated cut-off is given here; in the data, active = GI50 up to about 1.1 µM and inactive = higher. *1 amine or outer side, *2 acyl side, *3 side chain or, on linkers, in order; H or OH if unused. Where a SMILES comes first, the peptide text is derived from it. Bridges are numbered along the chain shown (N, C = ends). [ ]: non-standard residue; d: D form. The star is where a group is joined. X56 = CC(C)C(C)C(C(=O)[*:2])N(C)[*:1]; Picolinoyl(3-OH) = O=C(c1ncccc1O)*; NMePhg = CN[CH](C(=O)O)c1ccccc1; Hyp = O=C(O)[CH]1C[CH](O)CN1; Sar = CNCC(=O)O

Inquiry: Endpoint output: GI50 of CCOC(=O)C(CC(C)C)NC(=O)C(Cc1ccc(N(CCCl)CCCl)cc1)NC(C)=O (centres undefined) . Value?
Reply text: 18.7 µM (inactive)

More entries:
Inquiry: Endpoint output: GI50 of "NC(=O)c1cc2ccc(O)cc2o/c1=N/NC(=O)c1ccccc1" . Value?
Reply text: 66.2 µM (inactive)

Inquiry: Endpoint output: GI50 of "CC(C)(C)OC(=O)N1C(C2=COc3ccccc3O2)=COc2cccnc21" . Value?
Reply text: 1.99 µM (inactive)

Inquiry: Endpoint output: GI50 of COc1ccc(CC2Cc3ccccc3CCN2)cc1OC (centres undefined) . Value?
Reply text: 20.9 µM (inactive)

Inquiry: Endpoint output: GI50 of COCCOCCOCCOc1ccc(C(C#N)N(CCc2ccccc2)C(=O)c2cc(C(=O)N(CCc3ccccc3)C(C#N)c3ccc(OCCOCCOCCOC)cc3)cc(C(=O)N(CCc3ccccc3)C(C#N)c3ccc(OCCOCCOCCOC)cc3)c2)cc1 (centres undefined) . Value?
Reply text: > 100 µM (inactive)

Inquiry: Endpoint output: GI50 of CC(C)CC1NC(=O)C(NC(=O)c2ncccc2O)C(C)OC(=O)C(c2ccccc2)N(C)C(=O)C(C)NC(=O)C(C(C)C(C)C)N(C)C(=O)CN(C)C(=O)C2CC(O)CN2C1=O (centres undefined) ({Picolinoyl(3-OH)}-TL[Hyp][Sar][X56]A[NMePhg]; ester 1-C; configuration not given here) . Value?
Reply text: 26.9 µM (inactive)

Inquiry: Endpoint output: GI50 of "O=C1/C(=N/c2ccc(Nc3ccccc3)cc2)Oc2ccccc21" . Value?
Reply text: 1.67 µM (inactive)

Inquiry: Endpoint output: GI50 of "O=C(Sc1c(-c2ccccc2)c(=O)n(-c2ccccc2)c(=S)n1-c1ccccc1)c1ccco1" . Value?
Reply text: > 100 µM (inactive)

Inquiry: Endpoint output: GI50 of "CCCN1CC=CCC1" . Value?
Reply text: > 100 µM (inactive)
